Target sequence: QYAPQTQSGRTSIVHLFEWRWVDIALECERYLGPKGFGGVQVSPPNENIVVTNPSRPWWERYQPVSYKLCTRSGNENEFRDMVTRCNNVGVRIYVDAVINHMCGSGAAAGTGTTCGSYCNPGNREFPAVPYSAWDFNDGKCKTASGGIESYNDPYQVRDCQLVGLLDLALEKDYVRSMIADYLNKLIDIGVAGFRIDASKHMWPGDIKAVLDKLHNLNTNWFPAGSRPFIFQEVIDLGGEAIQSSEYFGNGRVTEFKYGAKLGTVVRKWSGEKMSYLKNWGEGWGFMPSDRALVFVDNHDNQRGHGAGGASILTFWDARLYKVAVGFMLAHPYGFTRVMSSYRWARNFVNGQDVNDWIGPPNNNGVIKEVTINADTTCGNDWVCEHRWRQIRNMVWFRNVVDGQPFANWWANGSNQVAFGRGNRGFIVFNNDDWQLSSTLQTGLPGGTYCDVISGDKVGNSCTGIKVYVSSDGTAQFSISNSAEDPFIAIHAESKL
value_kind: IC50 (mM)
Give just the numeric value; mM need not be written.

Could you share which IC50 value was measured for `COc1cc(C=Nc2ccc([N+](=O)[O-])cn2)ccc1O` ?
11.3
